Tested on: MDS-L cells
protocol.summary: MDS-L differentiation assay (GlyA positivity, 384-well FACS-based)
condition.details: human
metric.name: Maximal MDS-LGlyA fold induction (fold)
Value expressed in fold; do not type the unit.

Req: Entry under review: CC(C)(N)CNC(=O)C[C@H]1CC[C@]2(CC1)OO[C@]1(O2)[C@@H]2C[C@H]3C[C@@H](C2)C[C@@H]1C3 . Reported Maximal MDS-LGlyA fold induction?
Resp: 7.02

Req: Also C[C@H]1[C@@H](O)O[C@@H]2O[C@@]3(C)CC[C@H]4[C@H](C)CC[C@@H]1[C@@]24OO3 [Dihydroarte misin, dihydroartemisinin] , if possible.
Resp: 7.09

Req: Next record, please: C[C@H]1[C@@H](OCc2ccc(C(=O)O)cc2)O[C@@H]2O[C@@]3(C)CC[C@H]4[C@H](C)CC[C@@H]1[C@@]24OO3 [Artelinic acid (artelinate), Artelinic acid]
Resp: 7.26
